system: diphosphomevalonate decarboxylase (Streptococcus pneumoniae D39); assay: S. pneumoniae DPM-DC inhibitors, primary screen, biochemical, PK/LDH-coupled NADH fluorescence (AID 556); conditions: purified DPM-DC, at 10 µM; stronger effect = higher value unless noted;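 for inhibition: kinetic rate of NADH fluorescence loss reporting ADP formed by the decarboxylase; 0% = full reaction rate with carrier and 100% = no-substrate background rate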
Among all 65,000 compounds or so, about 320 (0.49%) were called active. Shown is part of a subset that was picked to be rich in actives.
Result Type: inhibition

Molecule: O=C(Oc1ccccc1)c1ccc2nccnc2c1
inhibition: inactive

Molecule: CCOC(=O)c1ccc(N2C(=O)CC(Sc3nc(O)c(CC)c(=O)[nH]3)C2=O)cc1 (stereo unspecified)
inhibition: inactive

Molecule: CC1CCc2sc3nc(N4CCN(CCO)CC4)n4ncnc4c3c2C1 (stereo unspecified)
inhibition: inactive

Molecule: CCNS(=O)(=O)c1ccc(NC(=O)Nc2cccc(C(F)(F)F)c2)cc1
inhibition: inactive

Molecule: Cc1c2cn[nH]c(=O)c2c(C)n1Cc1ccc(F)cc1
inhibition: inactive

Next, consider the following molecule.
Jot down inhibition (diphosphomevalonate decarboxylase (Streptococcus pneumoniae D39)) of COC(=O)c1ccccc1NC(=O)CN(Cc1ccccc1)S(C)(=O)=O . 5% (inactive)

====

test system: diphosphomevalonate decarboxylase (Streptococcus pneumoniae D39); test: S. pneumoniae DPM-DC inhibitors, primary screen, biochemical, PK/LDH-coupled NADH fluorescence (AID 556); settings: purified DPM-DC, at 10 µM, stronger effect = higher value
Among all 65,000 compounds or so, about 320 (0.49%) were called active. The sample as a whole holds a higher share of actives than the screen did.
Can you tell me inhibition for the items I'm about to list?
All answers are understood in %, so give the number only.

Provide the reported inhibition (system: diphosphomevalonate decarboxylase (Streptococcus pneumoniae D39)) for CC(C[N+](C)(C)C)OC(N)=O (stereo not given) 1

State recorded inhibition with diphosphomevalonate decarboxylase (Streptococcus pneumoniae D39), entry CC(C)COC(=O)C1C2C=CC3(CN(C(C)c4ccc(Br)cc4)C(=O)C13)O2 (stereo not given) , no comment. 22

Give diphosphomevalonate decarboxylase (Streptococcus pneumoniae D39) inhibition for the following compound: CC1=C(C(=O)Nc2ccccc2)C(c2cccs2)C(C#N)=C(SCC#N)N1 (stereo not given) 1

Give measured inhibition for Cc1ccc(S(=O)(=O)NCCN2CCOCC2)cc1C (diphosphomevalonate decarboxylase (Streptococcus pneumoniae D39)). 80

State inhibition (diphosphomevalonate decarboxylase (Streptococcus pneumoniae D39)) of Cc1cccc(C2c3c(n(C)c(=O)n(C)c3=O)N=C3c4ccccc4C(=O)C32)c1 (stereo not given) . 4

====

tested on: diphosphomevalonate decarboxylase (Streptococcus pneumoniae D39); test: S. pneumoniae DPM-DC inhibitors, primary screen, biochemical, PK/LDH-coupled NADH fluorescence (AID 556); settings: purified DPM-DC, at 10 µM
Hit rate of the full screen: of about 65,000 compounds, about 320 (0.49%) were called active.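 The calls were made as follows: active = the 320 compounds with the highest percent inhibition in the single-dose primary screen, excluding strongly autofluorescent ones (cut at about 32% in these data); inactive = the rest, inconclusive results apart.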 For the sample, actives were picked, then their nearest neighbours and some compounds at random.
Select the correct class. Options are active, inactive and nothing else.

What classification did CCC1=C(C(=O)OC)C(c2cc(OC)ccc2OC)C(C#N)=C(N)O1 (centres undefined) end up with in this test? inactive

How was CCOC(=O)c1c(-n2cnnn2)sc(C)c1C classified in this test? inactive

Look up the recorded call for CC(=O)Nn1cc2c(=O)n(C)c(=O)n(C)c2c1 in this test. inactive

Dear colleague, could you share the recorded outcome for O=C1OC(NC(=O)c2ccccc2)C(N2CCOCC2)=C1Cl (centres undefined) when you have a moment? inactive

Could you check what this test reported for CCCn1c(=O)c2ccccc2n2c(SCC(=O)/C(C#N)=C(\C)N)nnc12 ? active

For this compound, state the assay outcome: CCOC(=O)Cc1csc(NC(=O)CN(C)S(=O)(=O)c2ccc3c(c2)CCC(=O)N3)n1 inactive

In this assay, the call recorded for COC(=O)c1cccc(NC(=O)CN2CCC(NC(=O)c3cc(OC)c(OC)c(OC)c3)CC2)c1 was what? inactive

Test call, this compound: Cc1cc(=O)cc(C)[nH]1 active

Check the results log: what was the call for COc1ccc(NC(=O)CCNC(=O)Cn2ccc3ccccc3c2=O)c(OC)c1 ? inactive

Test call for this compound, please: CCOc1ccccc1N(CC(=O)Nc1ccccc1C(=O)OC)S(C)(=O)=O inactive

State the result this test recorded for O=C(CSc1nnnn1C1CCCC1)Nc1ccc2c(c1)OCCO2 . inactive

Please let me know the test result on file for CC(C)c1nc(-c2ccccn2)no1 . inactive

Lab log entry: COCCCN1C(=O)c2ccc(C(=O)Nc3ccc(OC)cc3OC)cc2C1=O — outcome as called in the assay? inactive

What call does the record list for NC(=O)c1ccsc1NC(=O)c1ccco1 ? inactive

For this compound, state the assay outcome: CCCCNc1nc2ccccc2nc1NS(=O)(=O)c1cccs1 inactive

Returns: the outcome recorded for COc1ccc(OC)c(CNC(=O)CCc2nc(-c3cccs3)no2)c1 in this assay. inactive

Assay result, entry COc1ccc2c(c1)C(C)=CC(C)(C)N2C(=O)CNCc1ccc2c(c1)OCO2 — outcome? inactive

Test call for this compound, please: Cc1[nH]c2ccc(S(N)(=O)=O)cc2c1C inactive

Query: recorded result category for COc1ccccc1CNCc1cccs1 in this test inactive

Give the logged outcome of this assay for the following compound: O=C(NC12CC3CC(CC(C3)C1)C2)N1CCCC(CO)C1 (centres undefined) inactive

Each compound tested received a call. Report the one for Cc1cc(=O)[nH]c(=S)[nH]1 . inactive

Hello, I am checking results. What call was entered for C=CCn1c(=O)c2ccccc2n2c(SCC(=O)N3CCCc4ccccc43)nnc12 ? inactive

====

tested on: diphosphomevalonate decarboxylase (Streptococcus pneumoniae D39); assay: S. pneumoniae DPM-DC inhibitors, primary screen, biochemical, PK/LDH-coupled NADH fluorescence (AID 556); conditions: purified DPM-DC, at 10 µM; stronger effect = higher value unless noted;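 for inhibition: kinetic rate of NADH fluorescence loss reporting ADP formed by the decarboxylase; 0% = full reaction rate with carrier and 100% = no-substrate background rate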
Screen size: about 65,000 compounds; about 320 (0.49%) were called active. The list comes from a sample in which actives are over-represented; it also holds close analogues and randomly drawn compounds.
Result Type: inhibition

Example compounds with recorded inhibition:
Compound: Cc1nc2ncnn2c(C)c1CCC(=O)N1CCN(C(=O)c2ccco2)CC1
inhibition: inactive
--
Compound: CCC(=O)c1ccc(OCC(O)CN2C(=O)NC(C)(C)C2=O)cc1 (stereo not drawn)
inhibition: inactive
--
Compound: COc1ccc(C(CNC(=O)c2cccnc2SC)N2CCOCC2)cc1 (stereo not drawn)
inhibition: inactive
--
Compound: CCOC(=O)/C=c1\s/c(=C\c2ccccc2OC)c(=O)n1CC(=O)N1CCOCC1
inhibition: 4% (inactive)
--
Compound: O=C(CSc1nc2cc3c(cc2c(=O)n1CCC1=CCCCC1)OCO3)NCc1ccco1
inhibition: inactive

Identify the reported inhibition for the following entry. Cc1cc(C)nc(SCc2nnc(SCC(=O)OC3CCCCC3)o2)n1 inactive

Report inhibition for Cc1ccccc1CN1CCN(CC(=O)NCc2ccccn2)C1=O inactive

====

tested on: diphosphomevalonate decarboxylase (Streptococcus pneumoniae D39); assay: S. pneumoniae DPM-DC inhibitors, primary screen, biochemical, PK/LDH-coupled NADH fluorescence (AID 556); conditions: purified DPM-DC, measured here: pilot screen trials, at 10 µM, stronger effect = higher value;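 for inhibition: kinetic rate of NADH fluorescence loss reporting ADP formed by the decarboxylase; 0% = full reaction rate with carrier and 100% = no-substrate background rate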
About 320 (0.49%) of roughly 65,000 compounds were called active. The entries come from a sample that favours actives as a whole.
Result Type: inhibition
Give me the value, and tack the unit on after it.

Specify measured inhibition for CC(C)COC(=O)C1C2C=CC3(CN(C(C)c4ccc(Br)cc4)C(=O)C13)O2 (stereo not drawn) . 0%

Identify measured inhibition corresponding to COc1ccc(C2C3=C(OC(C)=O)c4ccccc4C3=Nc3c2c(=O)n(C)c(=O)n3C)cc1 (stereo not drawn) 3.5%

Query inhibition for CC(C[N+](C)(C)C)OC(N)=O (stereo not drawn) 0%

Specify reported inhibition for the compound shown: CC1=C(C(=O)Nc2ccccc2)C(c2cccs2)C(C#N)=C(SCC#N)N1 (stereo not drawn) 3%

Name the recorded inhibition of the compound listed here: CCCCOC(=O)Nc1nccs1 4.5%

Return reported inhibition. Input compound: CCCCn1nc(C(=O)N2CCc3ccccc32)c2ccccc2c1=O 2%

Hello, please tell me recorded inhibition for this one: Cc1ccc(S(=O)(=O)NCCN2CCOCC2)cc1C 0%

Return the recorded inhibition value; entry: Cc1nc(NC(=O)C23CCC(C)(C(=O)O2)C3(C)C)sc1C (stereo not drawn) 2%

====

tested on: diphosphomevalonate decarboxylase (Streptococcus pneumoniae D39); assay: S. pneumoniae DPM-DC inhibitors, primary screen, biochemical, PK/LDH-coupled NADH fluorescence (AID 556); settings: purified DPM-DC, at 10 µM; stronger effect = higher value unless noted;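 for inhibition: kinetic rate of NADH fluorescence loss reporting ADP formed by the decarboxylase; 0% = full reaction rate with carrier and 100% = no-substrate background rate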
In all, about 65,000 compounds went through this assay and about 320 (0.49%) were called active. Only a selection was taken, and actives are over-represented in it overall.
Result Type: inhibition

Use the examples below as a reference point.
Compound: CCN=C1SC(CC(=O)Nc2ccc(C)cc2)C(=O)N1CC (stereo unspecified)
Target Or Test System: diphosphomevalonate decarboxylase (Streptococcus pneumoniae D39)
inhibition: inactive

Compound: O=C(Nc1ccccc1F)c1cc(S(=O)(=O)N2CCCCC2)cs1
Target Or Test System: diphosphomevalonate decarboxylase (Streptococcus pneumoniae D39)
inhibition: inactive

Compound: CC(=O)Oc1cc2c(C(=O)NCCN3CCOCC3)c(C)oc2c2ccccc12
Target Or Test System: diphosphomevalonate decarboxylase (Streptococcus pneumoniae D39)
inhibition: inactive

Compound: CCC(=O)N(Cc1cc2cc(OC)ccc2[nH]c1=O)c1ccccc1C
Target Or Test System: diphosphomevalonate decarboxylase (Streptococcus pneumoniae D39)
inhibition: 16% (inactive)

Okay, next one:
Identify the reported inhibition for the following entry. Cn1c(SCc2nc3ccccc3s2)nnc1-c1ccc2c(c1)OCO2 inactive
